- ASSAY_NOTES: NCI Yeast Anticancer Drug Screen. Data for the cln2 rad14 strain (AID 165);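 further: 0% = growth equal to vehicle treated cultures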
- ASSAY_SETUP: S. cerevisiae cln2 rad14 strain, at 5.0 µM (retest, dose inferred, filed as 0.5), stronger effect = higher value
This is part of a sample that, as a whole, favours compounds with a hit. Of some 79,000 tested, about 15% had one in any assay.
ASSAY_READOUT: growth inhibition (%)

[[record]]
compound = "CN(NC(=O)/C(=C/c1cc(Cl)cc(Cl)c1O)NC(=O)c1ccccc1)c1cnn(-c2ccccc2)c(=O)c1Cl"
unit_descriptor = "%"
result_value = -6

[[record]]
compound = "C[n+]1c(-c2ccc(/C=N/Nc3ccnc(N/N=C/c4ccc(-c5cn6ccccc6[n+]5C)cc4)n3)cc2)cn2ccccc21"
unit_descriptor = "%"
result_value = 98

[[record]]
compound = "COc1ccc(/C=C2\\CCC(CN3CCOCC3)C2=O)cc1 (stereo not given)"
unit_descriptor = "%"
result_value = 46

[[record]]
compound = "O=[N+]([O-])c1ccc(S(=O)(=O)Cc2ccccc2)c2nonc12"
unit_descriptor = "%"
result_value = -11

[[record]]
compound = "Cc1cccc(N2C(c3ccccc3)c3ccc(C)cc3NS2=O)c1 (stereo not given)"
unit_descriptor = "%"
result_value = 1

[[record]]
compound = "CC(C)C1=CC(=O)C(C)(C2C(O)CC3(C)C4CC=C5C(CCC(O)C5(C)C)C4(C)C(=O)CC23C)O1 (stereo not given)"
unit_descriptor = "%"
result_value = 54

[[record]]
compound = "Nc1ncnc2c1cnn2C1CCCCC1"
unit_descriptor = "%"
result_value = -1

[[record]]
compound = "CN(C)c1ccc(C=Nc2cncc3ccccc23)cc1"
unit_descriptor = "%"
result_value = -20

[[record]]
compound = "Nc1cccc2c1[nH]c(=O)c1ccccc12"
unit_descriptor = "%"
result_value = -4

[[record]]
compound = "CSC(=S)N/N=C(C)/C=C/c1ccccc1"
unit_descriptor = "%"
result_value = -10


----------
- ASSAY_NOTES: NCI Yeast Anticancer Drug Screen. Data for the bub3 strain (AID 167)
- ASSAY_SETUP: S. cerevisiae bub3 mutant strain, at 50.0 µM, stronger effect = higher value
- Method: Growth inhibition of yeast strains with defined genetic alterations is measured as a screen for potential anti-cancer activity. Selected strains with alterations in DNA damage repair or cell cycle control were exposed to compounds and growth inhibition was measured relative to vehicle treated controls. The strain used in this assay is bub3
This is part of a sample that, as a whole, favours compounds with a hit. Of some 79,000 tested, about 15% had one in any assay.
Quick rule for you: growth inhibition at 30% or higher means Condition met, lower means Condition not met.

[[record]]
molecule = "CC(=O)OCC1OC(OC2CCCc3c(O)c4c(c(O)c32)C(=O)c2ccccc2C4=O)C(OC(C)=O)C(OC(C)=O)C1OC(C)=O (configuration not stated)"
qualitative_label = "Condition met"

[[record]]
molecule = "O=C(O)Cc1cccc(O)c1"
qualitative_label = "Condition not met"

[[record]]
molecule = "CC(C)(Cl)C(Cl)CC/C(CBr)=C(\\Cl)CBr (configuration not stated)"
qualitative_label = "Condition met"

[[record]]
molecule = "O=[N+]([O-])c1cccc(C=Nc2ccccc2O)c1"
qualitative_label = "Condition met"

[[record]]
molecule = "c1ccc([P+](C[P+](c2ccccc2)(c2ccccc2)c2ccccc2)(c2ccccc2)c2ccccc2)cc1"
qualitative_label = "Condition met"

[[record]]
molecule = "COc1cc(-c2ccc(-[n+]3nc(Cc4ccc5c(c4)OCO5)nn3-c3ccccc3)c(OC)c2)ccc1-[n+]1nc(Cc2ccc3c(c2)OCO3)nn1-c1ccccc1"
qualitative_label = "Condition met"

[[record]]
molecule = "CC(C)CCSc1ncnc2nc[nH]c12"
qualitative_label = "Condition met"

[[record]]
molecule = "Cc1cccc(/C=N/Nc2ccccn2)n1"
qualitative_label = "Condition met"

[[record]]
molecule = "Cn1c(=S)c2[nH]c(SCc3ccncc3)nc2n(C)c1=O"
qualitative_label = "Condition met"

[[record]]
molecule = "CN(NC(=O)/C(=C\\c1ccco1)NC(=O)c1ccccc1)c1cn[nH]c(=O)c1Cl"
qualitative_label = "Condition met"

[[record]]
molecule = "O=C(O)CN(CC(=O)O)C1CCCCC1N1CC(=O)OC(=O)C1 (configuration not stated)"
qualitative_label = "Condition met"

[[record]]
molecule = "Nc1nnc2nc(CC(=O)c3ccc([N+](=O)[O-])cc3)c(CC(=O)c3ccc([N+](=O)[O-])cc3)nn12"
qualitative_label = "Condition not met"

[[record]]
molecule = "O=[N+]([O-])c1ccc(Cl)cc1C(Nc1nncs1)Nc1nncs1"
qualitative_label = "Condition met"

[[record]]
molecule = "CCOc1ccc2nc([NH-])sc2c1.CCOc1ccc2nc([NH-])sc2c1.[Cl][Pt+2][Cl]"
qualitative_label = "Condition not met"

[[record]]
molecule = "COC12C=CC(CC1)c1c2c(O)c2ccncc2c1O (configuration not stated)"
qualitative_label = "Condition met"

[[record]]
molecule = "[O-]/[N+]1=[N+](\\[O-])c2ccccc2CCc2ccccc21"
qualitative_label = "Condition not met"

[[record]]
molecule = "CCCCCCCCCCCOc1cccc(N2C(N)=NC(N)=NC2(C)C)c1"
qualitative_label = "Condition met"

[[record]]
molecule = "COc1ccc(/C(Cl)=C(\\C=O)c2ccc(Cl)cc2)cc1OC"
qualitative_label = "Condition not met"

[[record]]
molecule = "Oc1ccc(O)c2nc3ccccc3nc12"
qualitative_label = "Condition met"

[[record]]
molecule = "CCCCCCCCCCCC(=O)NC(CCC(=O)O)C(=O)O (configuration not stated)"
qualitative_label = "Condition not met"

[[record]]
molecule = "Clc1ccccc1N1CCN(c2c3c(nc4ccccc24)CCCCC3)CC1"
qualitative_label = "Condition met"

